# System: anaphylactic bronchospasm (antigen-induced SRS-A mediated bronchoconstriction)
# PROCEDURE TEXT: Inhibition of anaphylactic bronchospasm in sensitized guinea pigs
# Format: in vivo, guinea pig
# MEASUREMENT CONDITIONS: Cavia porcellus, iv, 0.25 h, Dose 10 mpk, read-out: % Inhibition of anaphylactic bronchospasm
QUANTITY: inhibition in vivo at 10 mg/kg (%)
Numbers only, in %.

[
  {
    "COMPOUND": "COc1cc(OC)c2c(c1)C(C)(C)C(c1ccc(OC)c(OC)c1)CC2=O (stereo not drawn)",
    "inhibition in vivo at 10 mg/kg [%]": 0
  }
]

// each compound listed below needs its inhibition in vivo at 10 mg/kg
1. COc1cc(OC)c2c(c1)C(C)(C)C(c1ccc(OC)c(OC)c1)CCC2=O (stereo not drawn) [drawing 90 [X=O; W=H; J=H]]
2. COc1cc(OC)c2c(c1)C(C)(C)C(c1ccc(OC)c(OC)c1)CC(=O)C2 (stereo not drawn) [drawing 89 [X=CH2; R3/R4=O; P=OCH3]]

Response:
1. 56
2. 0

---

# SYSTEM NAME: 5-lipoxygenase (Homo sapiens)
# Construct: Human polymorphonuclear leukocytes (neutrophils) were obtained from normal healthy volunteers; endogenous in cells; host or cells: human blood neutrophils from healthy volunteers
# Sequence (P09917 whole entry): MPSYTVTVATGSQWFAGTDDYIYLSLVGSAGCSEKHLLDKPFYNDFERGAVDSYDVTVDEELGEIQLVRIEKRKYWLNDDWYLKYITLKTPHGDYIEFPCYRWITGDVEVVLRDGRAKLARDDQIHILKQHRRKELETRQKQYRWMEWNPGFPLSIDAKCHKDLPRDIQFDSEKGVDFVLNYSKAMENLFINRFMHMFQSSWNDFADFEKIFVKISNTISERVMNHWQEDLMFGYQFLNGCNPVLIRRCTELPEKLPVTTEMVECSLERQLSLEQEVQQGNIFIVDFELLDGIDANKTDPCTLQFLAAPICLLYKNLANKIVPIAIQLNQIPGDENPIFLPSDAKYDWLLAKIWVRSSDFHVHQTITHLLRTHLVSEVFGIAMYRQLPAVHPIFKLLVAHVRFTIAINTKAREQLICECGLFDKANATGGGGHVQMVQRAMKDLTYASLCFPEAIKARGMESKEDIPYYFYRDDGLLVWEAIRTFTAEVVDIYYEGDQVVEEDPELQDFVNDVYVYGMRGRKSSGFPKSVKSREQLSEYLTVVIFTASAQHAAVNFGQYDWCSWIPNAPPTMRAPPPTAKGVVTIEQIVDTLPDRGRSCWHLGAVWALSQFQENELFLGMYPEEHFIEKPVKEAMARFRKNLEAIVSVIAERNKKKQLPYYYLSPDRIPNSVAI
# PROCEDURE TEXT: 5-Lipoxygenase assay with human neutrophils
# Assay type: cell-based
# MEASUREMENT CONDITIONS: 5 min; Human PMN, dose 15 μm (μM); read-out: % Inhibition LTB
QUANTITY: inhibition at 15 µM (%)
One number for each entry, in %.

[
  {
    "COMPOUND": "COc1cc(OC)cc(C2CCC(=O)c3c(OC)cc(OC)cc3C2(C)C)c1 (stereo not drawn)",
    "SYSTEM NAME": "5-lipoxygenase (Homo sapiens)",
    "inhibition at 15 µM, %": 46
  },
  {
    "COMPOUND": "COc1cc(OC)cc(C2=CC(=O)c3c(cc(OC)c(OC)c3OC)C2(C)C)c1 [drawing 101 [R3/R4=O; E,G,P,L,K=OCH3; db yes]]",
    "SYSTEM NAME": "5-lipoxygenase (Homo sapiens)",
    "inhibition at 15 µM, %": 1
  }
]

Now for a further compound.
According to the records, this compound COc1cc(OC)c2c(c1)C(C)(C)C(c1ccccc1)CC2=O (stereo not drawn) displays inhibition at 15 µM of 0

Recorded values, source patent US5225436A.
